Collected Kd values appear next to each entry.
- MEASUREMENT_TARGET: T1, human CD73 antigen (human, UniProt P21589 27-547)
- T1 construct: also called Biotinylated Human CD73
- T1 sequence (looked up): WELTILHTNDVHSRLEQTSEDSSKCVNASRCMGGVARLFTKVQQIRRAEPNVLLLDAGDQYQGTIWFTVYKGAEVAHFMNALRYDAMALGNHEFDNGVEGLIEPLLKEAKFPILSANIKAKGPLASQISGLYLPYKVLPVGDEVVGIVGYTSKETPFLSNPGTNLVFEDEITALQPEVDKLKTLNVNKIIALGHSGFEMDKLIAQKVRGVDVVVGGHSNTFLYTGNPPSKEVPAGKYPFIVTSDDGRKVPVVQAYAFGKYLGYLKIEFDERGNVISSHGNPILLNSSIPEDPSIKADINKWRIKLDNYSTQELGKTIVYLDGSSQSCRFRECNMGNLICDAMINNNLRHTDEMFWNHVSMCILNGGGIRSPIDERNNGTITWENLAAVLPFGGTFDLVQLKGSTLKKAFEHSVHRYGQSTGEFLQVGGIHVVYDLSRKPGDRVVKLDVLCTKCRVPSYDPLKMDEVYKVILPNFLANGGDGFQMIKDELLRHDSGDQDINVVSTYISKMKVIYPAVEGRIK
- EXPERIMENTAL_DETAILS: ForteBio BLI; antigen on sensor, 100 nM scFv; monovalent; 1:1 model
Give just the number in nM; leave the unit off.

Example entries and their recorded answers appear below.
scfv fragment of ADI-37542 (scFv, V domains shown) VH: QVQLQESGPGLVKPSETLSLTCAVSGYSISEGYYWGWIRQPPGKGLEWIGSIYHTGFTYYNPSLKSRVTISVDTSKNQFSLKLSSVTAADTAVYYCARASIYTPPPEYFQHWGQGTLVTVSS VL: DIQMTQSPSTLSASVGDRVTITCRASQSISSWLAWYQQKPGKAPKLLIYDASSLESGVPSRFSGSGSGTEFTLTISSLQPDDFATYYCQQSRIYSTFGGGTKVEIK: 6.04
scfv fragment of ADI-37496 (scFv, V domains shown) VH: EVQLVESGGGLVQPGRSLRLSCAASGFTFDDFYMHWVRQAPGKGLEWVSGISWSSTSIDYADSVKGRFTISRDNAKNSLYLQMNSLRAEDTAVYYCAKGKYLPTGSVDYWGQGTLVTVSS VL: EIVLTQSPGTLSLSPGERATLSCRASQSVSSSYLAWYQQKPGQAPRLLIYGASSRATGIPDRFSGSGSGTDFTLTISRLEPEDFAVYYCQQYYDYPPITFGGGTKVEIK: 13.8

GET /values?readout=Kd&item= scfv fragment of ADI-37543 (scFv, V domains shown) VH: QVQLQESGPGLVKPSETLSLTCAVSGYSISSGYYWAWIRQPPGKGLEWIGSIFHSGFTFYNPSLKSRVTISVDTSKNQFSLKLSSVTAADTAVYYCARASIYTPPPEYFQHWGQGTLVTVSS VL: DIQMTQSPSTLSASVGDRVTITCRASQSISSWLAWYQQKPGKAPKLLIYDASSLESGVPSRFSGSGSGTEFTLTISSLQPDDFATYYCQQSRIYSTFGGGTKVEIK
3.85

Returns the measured Kd for the input binder. Input: scfv fragment of ADI-37507 (scFv, V domains shown) VH: EVQLLESGGGLVQPGGSLRLSCAASGFTFLNYAMAWVRQAPGKGLEWVSAISGRATSTYYADSVKGRFTISRDNSKNTLYLQMNSLRAEDTAVYYCARGGPYGSGSYWDTFDYWGQGTLVTVSS VL: EIVMTQSPATLSVSPGERATLSCRASQSVSSNLAWYQQKPGQAPRLLIYGASTRATGIPARFSGSGSGTEFTLTISSLQSEDFAVYYCQQYTNHYTFGGGTKVEIK
9.21

Param item = scfv fragment of ADI-37504 (scFv, V domains shown) VH: EVQLLESGGGLVQPGGSLRLSCAASGFTFHNYAMSWVRQAPGKGLEWVSAISGTGRATYYADSVKGRFTISRDNSKNTLYLQMNSLRAEDTAVYYCARGGPYGSGSYWDTFDYWGQGTLVTVSS VL: EIVMTQSPATLSVSPGERATLSCRASQSVSSNLAWYQQKPGQAPRLLIYGASTRATGIPARFSGSGSGTEFTLTISSLQSEDFAVYYCQQYTNHYTFGGGTKVEIK ; retrieve measured Kd.
15.4

Entry scfv fragment of ADI-37503 (scFv, V domains shown) VH: EVQLLESGGGLVQPGGSLRLSCAASGFTFSNYAMSWVRQAPGKGLEWVSAISGRASSTYYADSVKGRFTISRDNSKNTLYLQMNSLRAEDTAVYYCARGGPYGSGSYWDTFDYWGQGTLVTVSS VL: EIVMTQSPATLSVSPGERATLSCRASQSVSSNLAWYQQKPGQAPRLLIYGASTRATGIPARFSGSGSGTEFTLTISSLQSEDFAVYYCQQYTNHYTFGGGTKVEIK has what Kd?
7.95

Look at this binder and give its reported Kd. scfv fragment of ADI-37513 (scFv, V domains shown) VH: EVQLLESGGGVVQPGRSLRLSCAASGFTFNFYGMHWVRQAPGKGLEWVAVINDEGINKYYADSVKGRFTISRDNSKNTLYLQMNSLRAEDTAVYYCARGGARYPIAFDIWGQGTMVTVSS VL: DIQLTQSPSSVSASVGDRVTITCRASQDISSWLAWYQQKPGKAPKLLIYAASSLQSGVPSRFSGSGSGTDFTLTISSLQPEDFATYYCQQANDFPITFGGGTKVEIK
2.84
